Cited source: patent US12723255B2

System: transgenic soybean plants
Assay: R0 soybean 2,4-D spray test of 2,4-D optimized variants
Assay type: in vivo
Conditions: 2,4-D rate 2X (1.5 lb ae/acre); single copy R0 soy; seven days after application
endpoint: Events with <20% injury

MON-HT1: engineered oxygenase protein, amino acid sequence SEQ ID NO:14 (protein) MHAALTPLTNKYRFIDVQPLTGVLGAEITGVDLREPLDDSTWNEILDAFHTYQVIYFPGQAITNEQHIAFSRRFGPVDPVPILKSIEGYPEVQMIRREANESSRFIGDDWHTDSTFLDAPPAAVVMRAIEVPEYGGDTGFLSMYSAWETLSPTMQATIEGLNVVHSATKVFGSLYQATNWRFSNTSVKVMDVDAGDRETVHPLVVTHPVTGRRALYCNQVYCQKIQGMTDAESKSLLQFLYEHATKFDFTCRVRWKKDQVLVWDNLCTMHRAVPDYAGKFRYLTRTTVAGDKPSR	12

We next turn to a different molecule, shown below.
QUERY: Which measured Events with <20% injury value corresponds to MON-HT15: engineered oxygenase protein, amino acid sequence SEQ ID NO:49 (protein) MHAALTPLTNKYRHIDVQPLTGVLGAEITGVDLREPLDDSTWNEILDAFHTYQVIYFPGQAITNEQHIAFSRRFGPVDPVPILKSIEGYPEVQMIRREANESSRYIGDDWHADSTFLDAPPAAVVMRAIEVPEYGGDTGFLSMYSAWETLSPAMQATIEGLNVVHSATKVFGSLYQATNWRFSNTSVKVMDVDAGDRETVHPLVVTHPVTGRRALYCNQIYCQKIQGMTDAESKSLLQFLYEHATQFDFTCRVRWKKDQVLVWDNLCTMHRAVPDYAGKFRYLTRTTVAGDKPSR ?
RESULT: 5
